// data source = patent US12187709B2

target: UniProt Q13191; assay: Cbl-b LCK Ub TR-FRET assay (Cbl-b Lck HTRF); format: biochemical; details: ratio C-cbl Lck HTRF IC50 / Cbl-b Lck HTRF IC50
Sequence (Q13191 40-426): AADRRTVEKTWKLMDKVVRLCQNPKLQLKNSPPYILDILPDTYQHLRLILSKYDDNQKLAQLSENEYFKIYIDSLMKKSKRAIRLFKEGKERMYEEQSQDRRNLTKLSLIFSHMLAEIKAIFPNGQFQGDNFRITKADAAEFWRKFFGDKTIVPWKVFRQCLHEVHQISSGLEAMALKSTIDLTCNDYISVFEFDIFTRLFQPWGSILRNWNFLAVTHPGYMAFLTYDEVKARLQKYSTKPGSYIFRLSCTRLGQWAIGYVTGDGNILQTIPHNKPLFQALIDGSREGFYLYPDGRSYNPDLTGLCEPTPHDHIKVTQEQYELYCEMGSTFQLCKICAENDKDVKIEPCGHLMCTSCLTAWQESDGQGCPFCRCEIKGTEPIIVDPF
measured metric: fold-selectivity (Cbl-b over C-cbl) (x)

Worked set:
CO[C@H]1C[C@@](c2cc(NC3CC3)cc(N3Cc4c(cc(CNC5(C)CCC5)cc4C(F)(F)F)C3=O)c2)(c2nncn2C)C1 [Compound 231] :: 1.5
Cn1cnnc1[C@@H](c1cccc(N2Cc3c(cc(CNC4(C)CCC4)cc3C(F)(F)F)C2=O)c1)[C@H]1C[C@H](C)C1 (single isomer, unassigned) [Compound 378] :: 6.0
Cn1nnnc1[C@@H](c1cccc(N2Cc3c(cc(CNC4(C)CCC4)cc3C(F)(F)F)C2=O)c1)C1COC1 (single isomer, unassigned) [Compound 348] :: 3.5
Cn1cnnc1[C@H](c1cccc(N2Cc3c(cc(CNC4(C)CCC4)cc3C(F)(F)F)C2=O)c1)[C@H]1C[C@H](C#N)C1 (single isomer, unassigned) [Compound 142] :: 1.8
C[C@H](c1cccc(N2Cc3c(cc(CNC4(C)CCC4)cc3C(F)(F)F)C2=O)c1)c1nncn1C (single isomer, unassigned) [Compound 170] :: 1.0

a = CO[C@H]1C[C@@](c2cc(OC3CCCC3)cc(N3Cc4c(cc(CNC5(C)CCC5)cc4C(F)(F)F)C3=O)c2)(c2nncn2C)C1 [Compound 208]
b = CCNc1cc(N2Cc3c(cc(CNC4(C)CCC4)cc3C(F)(F)F)C2=O)cc([C@]2(c3nncn3C)C[C@H](C)C2)c1 [Compound 90]
query: Response body: label of entry with the larger fold-selectivity (Cbl-b over C-cbl); valid values a , b . Mark your selection by writing its label.
result: a

1 = Cn1cnnc1[C@@H](c1cccc(N2Cc3c(Cl)cc(CNC4(C)CCC4)cc3C2=O)c1)[C@H]1C[C@@H](F)C1 [Compound 317]
2 = Cn1cnnc1[C@H](c1cccc(N2Cc3c(cc(CNC4(C)CCC4)cc3C(F)(F)F)C2=O)c1)C1CC(F)C1 (single isomer, unassigned) [Compound 127]
3 = C=CCNc1cc(N2Cc3c(cc(CNC4(C)CCC4)cc3C(F)(F)F)C2=O)cc([C@]2(c3nncn3C)C[C@H](OC)C2)c1 [Compound 232]
query: Please order the records by their reported fold-selectivity (Cbl-b over C-cbl), lowest number first. Arrange the labels as the request states and list them.
result: 3, 2, 1
